Tested on: HT-29
Experiment: Antiproliferative activity against human HT-29 cells after 72 hrs by MTT assay
Format: functional, cell-based
Conditions: HT-29, 72 h
pIC50: −log10 of the molar value.
reported.endpoint: pIC50

O=C1c2ccccc2C(=O)c2oc(C(=O)N3CCOCC3)cc21	6.07
O=C1c2ccccc2C(=O)c2oc(C(=O)N3CCSCC3)cc21	5.78
CC(=O)c1cc2c(o1)C(=O)c1ccccc1C2=O [NAPABUCASIN]	5.80
O=C1c2ccccc2C(=O)c2oc(C(=O)N3CCCCC3)cc21	5.80
O=C1CCN(C(=O)c2cc3c(o2)C(=O)c2ccccc2C3=O)CC1	5.95
O=C(/C=C/c1cccs1)c1cc2c(o1)C(=O)c1ccccc1C2=O	5.82
O=C(NCCN1CCCCC1)c1cc2c(o1)C(=O)c1ccccc1C2=O	7.15
CN1CCN(C(=O)c2cc3c(o2)C(=O)c2ccccc2C3=O)CC1	6.41
O=C(NCCN1CCOCC1)c1cc2c(o1)C(=O)c1ccccc1C2=O	6.43
O=C(NCCN1CCCC1)c1cc2c(o1)C(=O)c1ccccc1C2=O	6.52
Cn1cccc1/C=C/C(=O)c1cc2c(o1)C(=O)c1ccccc1C2=O	6.06
O=C1c2ccccc2C(=O)c2oc(C(=O)N3CCCC3)cc21	5.97
